Recorded values, source PubChem BioAssay AID1626.

Tested on: M. tuberculosis H37Rv growth inhibition
experiment description: M. tuberculosis H37Rv growth inhibitors, H37Rv strain (AID 1626)
cond: measured here: Vero cell cytotoxicity
value kind: CC50

# input Item COc1ccc(C(CCN2CCCC(C)C2)c2c(OC)cc(OC)c3c(-c4ccccc4)cc(=O)oc23)cc1 (stereo not drawn) has what recorded CC50?
# output 14.1 µM

# input Item CCCCCOc1ccc(Br)cc1CSC(=N)N has what recorded CC50?
# output 14.8 µM

# input Item CCOc1ccc(NCc2nnc(SCc3ccc(Cl)cc3)n2-c2ccccc2)cc1 has what recorded CC50?
# output > 40 µM

# input Item COc1ccc(CCNC(=O)c2c(N)n(CCN3CCOCC3)c3nc4ccccc4nc23)cc1 has what recorded CC50?
# output > 40 µM

# input Item CC(C)c1ccc2nc(N)sc2c1 has what recorded CC50?
# output > 40 µM

# input Item CCc1ccc(C2c3[nH]c4ccccc4c3CCN2C(=O)c2cc(C)nn2C)cc1 (stereo not drawn) has what recorded CC50?
# output > 40 µM

# input Item Nc1c(C(=O)NC2CCCCC2)nsc1C(=O)OCC(=O)NC1CCCCC1 has what recorded CC50?
# output > 40 µM

# input Item Cc1ccc(Cc2cnc(NC(=O)C3CCCO3)s2)cc1 (stereo not drawn) has what recorded CC50?
# output > 40 µM

# input Item O=C(O)c1[nH]c(=O)[nH]c(=O)c1F has what recorded CC50?
# output > 40 µM

# input Item Cc1cccc(-c2cc3nc(C)c(C)c(NCCCn4ccnc4)n3n2)c1 has what recorded CC50?
# output > 40 µM

# input Item O=[N+]([O-])c1ccc(Sc2nc3ccccc3o2)c([N+](=O)[O-])c1 has what recorded CC50?
# output 8.69 µM

# input Item CC1CCN(c2nc(/C=C/c3ccccc3)nc3ccccc23)CC1 has what recorded CC50?
# output > 40 µM

# input Item CCOC(=O)/C=C/C(=O)Nc1ccc(Oc2ccccc2)cc1 has what recorded CC50?
# output > 40 µM

# input Item O=C(Nc1ccn(Cc2ccccc2F)n1)c1ccc(COc2ccc(Cl)cc2Cl)o1 has what recorded CC50?
# output > 40 µM

# input Item Cc1cc(C)nc(/N=C(\N)Nc2ccc(-c3ccccc3)cc2)n1 has what recorded CC50?
# output > 40 µM

# input Item CCSc1nnc(NC(=O)c2ccccn2)s1 has what recorded CC50?
# output 8.14 µM

# input Item O=C(/C=C/c1cccnc1)/C=C/c1cccnc1 has what recorded CC50?
# output 3.09 µM

# input Item O=C(NCc1nnc2c3ccccc3c(-c3ccccc3)nn12)c1ccc(Cl)cc1 has what recorded CC50?
# output > 40 µM

# input Item O=Cc1ccc(O)c2ncccc12 has what recorded CC50?
# output 7.88 µM

# input Item O=c1[nH]c2ccccc2n1CCCN1CCN(C(c2ccccc2)c2ccccc2)CC1 has what recorded CC50?
# output > 40 µM

# input Item CCCCCc1cc(=O)oc2c(C(CCN3CCCC(C)C3)c3ccc(N(C)C)cc3)c(OC)cc(OC)c12 (stereo not drawn) has what recorded CC50?
# output 16.5 µM

# input Item OCCN1CCN(CC(O)COc2ccc(C34CC5CC(CC(C5)C3)C4)cc2)CC1 (stereo not drawn) has what recorded CC50?
# output 9.85 µM

# input Item Oc1c(Cl)cc(Cl)cc1/C=C/c1ccc2cccc(O)c2n1 has what recorded CC50?
# output 10.1 µM
